Biological target: Thromboxane A2 receptor (Rattus norvegicus)
Sequence (P34978 whole entry): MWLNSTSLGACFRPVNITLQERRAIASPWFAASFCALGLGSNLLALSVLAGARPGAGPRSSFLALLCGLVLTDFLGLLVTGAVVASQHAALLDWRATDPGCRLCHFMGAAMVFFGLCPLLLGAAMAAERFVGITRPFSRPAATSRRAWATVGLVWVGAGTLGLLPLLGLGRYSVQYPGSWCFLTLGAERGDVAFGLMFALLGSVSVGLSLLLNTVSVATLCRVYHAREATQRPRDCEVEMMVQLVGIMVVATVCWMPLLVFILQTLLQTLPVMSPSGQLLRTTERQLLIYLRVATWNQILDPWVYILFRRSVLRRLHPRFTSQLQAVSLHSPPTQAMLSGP
Assay: In vitro thromboxane A2 receptor antagonism through inhibition of U-46619-induced contraction of rat isolated thoracic aortic strip
Format: functional
Conditions: read-out: pA2 (converted)
parameterMeasured: Kb (nM)

1. O=C(O)CC/C=C\CO[C@@H]1[C@@H](OCc2ccc(-c3ccccc3)cc2)CC[C@@H]1N1CCCCC1
2. CNS(=O)(=O)Cc1ccccc1-c1ccc(COC2CC[C@H](N3CCCCCC3)[C@H]2OC/C=C\CCC(=O)O)cc1 (stereo partly drawn)
3. O=C(O)CC/C=C\CO[C@H]1C(OCc2ccc(-c3ccccc3)cc2)CC[C@@H]1N1CCCCCC1 (stereo partly drawn)
Problem: Form: Sort by [Kb] Order [ ascending ] Sort and list the labels as requested.
Solution: 2, 3, 1
(2: 12.6 nM, 3: 25.1 nM, 1: 1000 nM)

###

Target: UniProt:P21731
Assay: In vitro thromboxane A2 receptor antagonism through inhibition of U-46619-induced platelet aggregation in human whole blood
Assay type: functional, tissue-based
Conditions: read-out: pA2 (converted)
parameterMeasured: Kb (nM)

{"compound": "O=C(O)CC/C=C\\CO[C@H]1C(OCc2ccc(-c3ccccc3CO)cc2)CC[C@@H]1N1CCCCCC1 (some centres not stated)", "Kb (nM)": 3.16}
{"compound": "O=C(O)CC/C=C\\CO[C@@H]1C(OCc2ccc(-c3ccccc3)cc2)CC[C@@H]1N1CCCCC1 (some centres not stated)", "Kb (nM)": 39.8}

P. NC(=O)Nc1ccccc1-c1ccc(COC2CC[C@H](N3CCCCCC3)[C@H]2OC/C=C\CCC(=O)O)cc1 (some centres not stated)
Q. O=C(O)CC/C=C\CO[C@H]1[C@@H](OCc2ccc(-c3ccccc3)cc2)CC[C@@H]1N1CCCCCC1
Problem: Pick one: P or Q . Which has the bigger Kb number? Pick one and reply with its label.
Solution: P
(P: 7.94 nM, Q: 5.01 nM)

P. O=C(O)CC/C=C\CO[C@H]1C(OCc2ccc(-c3ccccc3)cc2)CC[C@@H]1N1CCCCCC1 (some centres not stated)
Q. O=C(O)CC/C=C\CO[C@H]1C(OCc2ccc(-c3cccc(CO)c3)cc2)CC[C@@H]1N1CCCCCC1 (some centres not stated)
R. CNS(=O)(=O)Cc1ccc(-c2ccc(COC3CC[C@H](N4CCCCCC4)[C@H]3OC/C=C\CCC(=O)O)cc2)cc1 (some centres not stated)
Problem: Sort low-to-high on Kb, please. Sort and list the labels as requested.
Solution: R, Q, P
(R: 3.16 nM, Q: 7.94 nM, P: 12.6 nM)

###

Biological target: Thromboxane A2 receptor (Homo sapiens, UniProt P21731)
Sequence (P21731 whole entry): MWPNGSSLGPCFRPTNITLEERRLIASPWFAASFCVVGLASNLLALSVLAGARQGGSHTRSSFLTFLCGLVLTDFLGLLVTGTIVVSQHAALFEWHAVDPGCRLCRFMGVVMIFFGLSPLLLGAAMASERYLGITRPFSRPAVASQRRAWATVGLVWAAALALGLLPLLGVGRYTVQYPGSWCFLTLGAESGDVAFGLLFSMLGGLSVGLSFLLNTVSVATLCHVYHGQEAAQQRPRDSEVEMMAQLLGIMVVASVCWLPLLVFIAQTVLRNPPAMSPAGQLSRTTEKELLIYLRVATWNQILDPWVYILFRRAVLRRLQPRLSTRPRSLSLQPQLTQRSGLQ
Assay: In vitro thromboxane A2 receptor antagonism through inhibition of U-46619-induced platelet aggregation in human whole blood
Format: functional, tissue-based
Conditions: read-out: pA2 (converted)
parameterMeasured: Kb (nM)

For orientation, consider the following solved cases.
{"molecule": "O=C(O)CC/C=C\\CO[C@H]1[C@H](OCc2ccc(-c3ccccc3CO)cc2)CC[C@@H]1N1CCCCCC1", "Kb, nM": 6.31}
{"molecule": "NC(=O)Cc1ccccc1-c1ccc(COC2CC[C@H](N3CCCCCC3)[C@H]2OC/C=C\\CCC(=O)O)cc1 (stereo not given in full)", "Kb, nM": 7.94}

1. O=C(O)CC/C=C\CO[C@H]1C(OCc2ccc(-c3ccc(O)cc3)cc2)CC[C@@H]1N1CCCCCC1 (stereo not given in full)
2. NC(=O)c1ccc(-c2ccc(COC3CC[C@H](N4CCCCCC4)[C@H]3OC/C=C\CCC(=O)O)cc2)cc1 (stereo not given in full)
3. O=C(O)CC/C=C\CO[C@@H]1[C@@H](OCc2ccc(-c3ccccc3)cc2)CC[C@@H]1N1CCCCC1
Problem: Arrange by Kb, high to low. Sort and list the labels as requested.
Solution: 3, 1, 2
